SUBJECT_OF_TEST: C5a receptor (Homo sapiens, UniProt P21730)
ASSAY_TEXT: [125I]-C5a Radioligand Binding Assay (competition binding, differentiated U937 cells)
CONDITION_NOTES: read-out: [125I]-C5a Binding % Inhibition 10 μM, test compound 10 μM; [125I]-C5a 0.05 nM; U937 cells; multiple values = duplicate experiments
READOUT_LABEL: inhibition at 10 µM (%)
Quick note: give the figure in %, leave out the unit.

Please give the measured inhibition at 10 µM for this molecule: CCN(c1cccc2ccccc12)C1CCCc2nc(-c3ccccc3-c3ccccc3)cc(OC)c21 (centres unmarked)
84

Also CCc1cccc(CC)c1-c1cc(OC)c2c(n1)CCCC2Oc1cc(OC)ccc1C (centres unmarked) ?
89

Also CCN(c1cccc2ccccc12)C1CCCc2nc(-c3cccnc3)cc(OC)c21 (centres unmarked) ?
35

Also CCc1cccc(CC)c1-c1cc(OC)c2c(n1)CCCC2N1CCc2cc(C(=O)OC)ccc2C1 (centres unmarked) ?
70

Also CCc1cccc(CC)c1-c1cc(OC)c2c(n1)CCCC2N1CCc2ccc(C(=O)O)cc2C1 (centres unmarked) ?
-9

Also CCc1cccc(CC)c1-c1cc(Cl)c2c(n1)CCCC2N(CC)c1cccc2ccccc12 (centres unmarked) ?
83

Also CCc1cccc(CC)c1-c1cc(OC)c2c(n1)CCCC2N1CCc2ccccc2C1 (centres unmarked) ?
87

Also CCc1ccccc1-c1cc(OC)c2c(n1)CCCC2N(CC)c1cccc2ccccc12 (racemic) ?
87

---

SUBJECT_OF_TEST: C5a receptor (Homo sapiens)
ASSAY_TEXT: [125I]-C5a Radioligand Binding Assay (competition binding, differentiated U937 cells)
CONDITION_NOTES: read-out: [125I]-C5a Binding % Inhibition 1 μM, test compound 1 μM; [125I]-C5a 0.05 nM; U937 cells; multiple values = duplicate experiments
READOUT_LABEL: inhibition at 1 µM
Write your answer as a measured quantity: the number, then the unit.

Please give the measured inhibition at 1 µM for this molecule: CCc1cccc(CC)c1-c1cc(OC)c2c(n1)CCC[C@H]2N(CC)c1cccc2ccccc12
94%

Also CCc1cccc(CC)c1-c1cc(OC)c2c(n1)CCCC2N(C)C1CCCCC1 (stereo not shown) ?
2%

Also CCc1cccc(CC)c1-c1cc(OC)c2c(n1)CCCC2N(C)Cc1cccnc1 (stereo not shown) ?
-11%

Also CCc1cccc(CC)c1-c1cc(OC)c2c(n1)CCCC2N(C)c1ccccc1 (stereo not shown) ?
66%

---

SUBJECT_OF_TEST: C5a receptor (Homo sapiens, UniProt P21730)
pKi: −log10 of the molar value.
Kindly return true (1) if reported pKi is no lower than 7; return false (0) if it is lower.

Has CCN(c1cccc2ccccc12)C1CCCc2nc(-c3ccccc3)cc(OC)c21 (stereo not shown) a recorded pKi greater than or equal to 7?
false (0)

Also CCc1cccc(CC)c1-c1cc(OC)c2c(n1)CCCC2N1CCc2cccc(C(F)(F)F)c2C1 (stereo not shown) ?
true (1)

Also CCc1cccc(CC)c1-c1cc(Cl)c2c(n1)CCCC2N(CC)c1cccc2ccccc12 (stereo not shown) ?
false (0)

Also CCc1cccc(CC)c1-c1cc(OC)c2c(n1)CCCC2Nc1ccc(Cl)cc1CO (stereo not shown) ?
true (1)

Also CCc1cccc(CC)c1-c1cc(OC)c2c(n1)CCCC2N1CCc2ccccc2C1 (stereo not shown) ?
true (1)

Also CCc1cccc(CC)c1-c1cc(OC)c2c(n1)CCCC2N(C)c1ccccc1 (stereo not shown) ?
false (0)

Also CCN(c1cccc2ccccc12)C1CCCc2nc(-c3ccccc3F)cc(OC)c21 (stereo not shown) ?
false (0)

Also CCc1cccc(CC)c1-c1cc(OC)c2c(n1)CCC[C@@H]2N(C)[C@@H]1CCCc2ccccc21 ?
true (1)

Also CCc1cccc(CC)c1-c1cc(OC)c2c(n1)CCCC2Nc1cc(OC)ccc1C (stereo not shown) ?
true (1)

Also CCN(c1cccc2ccccc12)C1CCCc2nc(-c3cccc4ccccc34)cc(OC)c21 (stereo not shown) ?
false (0)

---

Would you kindly list inhibition at 1 µM for each of these compounds?
SUBJECT_OF_TEST: C5a receptor (Homo sapiens, UniProt P21730)
Sequence (P21730 1-350): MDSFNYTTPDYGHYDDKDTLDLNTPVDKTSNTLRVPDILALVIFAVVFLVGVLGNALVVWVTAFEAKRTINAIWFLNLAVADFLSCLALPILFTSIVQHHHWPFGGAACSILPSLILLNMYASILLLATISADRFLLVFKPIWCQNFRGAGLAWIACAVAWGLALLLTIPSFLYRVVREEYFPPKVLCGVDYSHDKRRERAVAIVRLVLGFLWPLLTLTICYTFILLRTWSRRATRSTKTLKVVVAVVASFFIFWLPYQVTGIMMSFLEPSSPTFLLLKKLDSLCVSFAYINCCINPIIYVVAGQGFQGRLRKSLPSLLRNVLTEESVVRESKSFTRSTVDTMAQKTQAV
ASSAY_TEXT: [125I]-C5a Radioligand Binding Assay (competition binding, differentiated U937 cells)
CONDITION_NOTES: read-out: [125I]-C5a Binding % Inhibition 1 μM, test compound 1 μM; [125I]-C5a 0.05 nM; U937 cells; multiple values = duplicate experiments
Quick note: give the figure in %, leave out the unit.

Please give the measured inhibition at 1 µM for this compound: COc1ccc(C)c(N(C)C2CCCc3nc(-c4c(C)cccc4C)cc(OC)c32)c1 (centres unmarked) [Compound 69]
76

Also CCc1cccc(CC)c1-c1cc(OC)c2c(n1)CCCC2Nc1cccc2c1CCC2 (centres unmarked) [Compound 121] ?
59

Also CCc1cccc(CC)c1-c1cc(OC)c2c(n1)CCCC2NC1Cc2ccccc2C1 (centres unmarked) [Compound 88] ?
25

Also CCOc1cc(-c2c(CC)cccc2CC)nc2c1C(N(CC)c1cccc3ccccc13)CCC2 (racemic) [Compound 8] ?
94

Also CCc1cccc(CC)c1-c1cc(OC)c2c(n1)CCCC2N(C)c1cc(OC)ccc1Cl (centres unmarked) [Compound 47] ?
83

Also CCc1cccc(CC)c1-c1cc(OC)c2c(n1)CCCC2N(CC)c1ncnc2ccccc12 (centres unmarked) [Compound 135] ?
16

Also CCc1cccc(CC)c1-c1cc(OC)c2c(n1)CCCC2Nc1c(C)ccc2ccccc12 (centres unmarked) [Compound 119] ?
64

Also CCN(c1cccc2ccccc12)C1CCCc2nc(-c3c(C)cccc3C)cc(OC)c21 (centres unmarked) [Compound 16] ?
88

Also CCN(c1cccc2ccccc12)C1CCCc2nc(-c3c(C)cc(OC)cc3C)cc(OC)c21 (centres unmarked) [Compound 21] ?
91

Also CCc1cccc(CC)c1-c1cc(OC)c2c(n1)CCCC2N(C)c1ccc(OC)cc1C (centres unmarked) [Compound 80] ?
80

Also CCc1cccc(CC)c1-c1cc(OC)c2c(n1)CCCC2N(C)c1cc(OC)ccc1OC (centres unmarked) [Compound 68] ?
66

Also CCc1cccc(CC)c1-c1cc(OC)c2c(n1)CCC[C@H]2N(C)[C@H]1CCCc2ccccc21 [Compound 43] ?
80

Also CCc1cccc(CC)c1-c1cc(OC)c2c(n1)CCCC2Nc1cc(F)ccc1C (centres unmarked) [Compound 50] ?
83

Also CCc1cccc(CC)c1-c1cc(OC)c2c(n1)CCCC2Nc1cc(OC)ccc1OC (centres unmarked) [Compound 34] ?
83

Also CCc1cccc(CC)c1-c1cc(OC)c2c(n1)CCCC2Nc1ccccc1CCO (centres unmarked) [Compound 5] ?
92

Also COc1ccc(C)c(NC2CCCc3nc(-c4c(C)cccc4C)cc(OC)c32)c1 (centres unmarked) [Compound 37] ?
74

Also CCc1cccc(CC)c1-c1cc(OC)c2c(n1)CCCC2N1CCc2ccc(Cl)cc2C1 (centres unmarked) [Compound 51] ?
83

---

Would you kindly list IC50 for each of these compounds?
SUBJECT_OF_TEST: UniProt P21730
ASSAY_TEXT: Calcium Mobilization Assay (C5a-induced Ca2+ mobilization, FLIPR, differentiated U937 cells)
CONDITION_NOTES: […] recombinant human C5a, 20 min pre-incubation, multiple values = duplicate experiments, read-out: C5a Induced Ca Mobil. Average IC50
Quick note: give the figure in nM, leave out the unit.

API: value(readout= IC50, system= UniProt P21730, query= COc1ccc(C)c(NC2CCCc3nc(-c4c(C)cccc4C)cc(OC)c32)c1 (stereo not shown) )
543

Also CCN(c1cccc2ccccc12)C1CCCc2nc(-c3c(Cl)cccc3OC)cc(OC)c21 (stereo not shown) ?
109

Also CCN(c1cccc2ccccc12)C1CCCc2nc(-c3c(C)cc(OC)cc3C)cc(OC)c21 (stereo not shown) ?
169

---

SUBJECT_OF_TEST: C5a receptor (Homo sapiens, UniProt P21730)
ASSAY_TEXT: [125I]-C5a Radioligand Binding Assay (competition binding, differentiated U937 cells);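 also: cells preincubated with compound 30 min at room temperature, then 60 min at 4 °C with radioligand, bound counts read by scintillation, nonspecific binding defined with 100 nM C5a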
CONDITION_NOTES: read-out: [125I]-C5a Binding % Inhibition 10 μM, test compound 10 μM; [125I]-C5a 0.05 nM; U937 cells; multiple values = duplicate experiments
Kindly return satisfied if reported inhibition at 10 µM is no lower than 80%; return not satisfied if it is lower.

Has CCc1cccc(CC)c1-c1cc(OC)c2c(n1)CCCC2N(C)c1cccc2ccccc12 (centres unmarked) [Compound 104] a recorded inhibition at 10 µM greater than or equal to 80%?
not satisfied

Also CCc1cccc(CC)c1-c1cc(OC)c2c(n1)CCCC2N(C)Cc1cccnc1 (centres unmarked) ?
not satisfied

Also CCc1cccc(CC)c1-c1cc(OCc2ccccc2)c2c(n1)CCCC2N(CC)c1cccc2ccccc12 (centres unmarked) ?
satisfied

Also CCc1cccc(CC)c1-c1cc(OC)c2c(n1)CCCC2Nc1cc(F)ccc1C (centres unmarked) ?
satisfied

Also CCc1cccc(CC)c1-c1cc(OC)c2c(n1)CCCC2Nc1ccccc1CO (centres unmarked) ?
satisfied

Also CCc1cccc(CC)c1-c1cc(OC)c2c(n1)CCCC2Nc1ccc(Cl)cc1CO (centres unmarked) ?
satisfied

Also CCc1cccc(CC)c1-c1cc(OC)c2c(n1)CCCC2N1CCc2cc(OC)c(OC)cc2C1 (centres unmarked) ?
not satisfied

Also COc1cc(-c2c(C)cccc2C)nc2c1C(N(C)c1cccc3c1CCN(C)C3)CCC2 (centres unmarked) ?
not satisfied

Also CCc1cccc(CC)c1-c1cc(OC)c2c(n1)CCCC2N(C)c1cc(-c2ccccc2)ccc1C (centres unmarked) ?
satisfied

Also CCc1cccc(CC)c1-c1cc(OC)c2c(n1)CCCC2Nc1cc(OC)ccc1Cl (centres unmarked) ?
satisfied

Also CCc1cccc(CC)c1-c1cc(OC)c2c(n1)CCCC2N(CC)c1cccc2c1CCCC2 (centres unmarked) ?
satisfied

Also CCc1cccc(CC)c1-c1cc(OC)c2c(n1)CCCC2N(C)c1cc(C)ccc1C (centres unmarked) ?
satisfied

Also CCc1cccc(CC)c1-c1cc(OC)c2c(n1)CCCC2N1CCc2c(cccc2C(=O)OC)C1 (centres unmarked) ?
not satisfied

Also CCc1ccccc1NC1CCCc2nc(-c3c(CC)cccc3CC)cc(OC)c21 (centres unmarked) ?
satisfied

This collection of values is drawn from patent US20090048295A1.
